pKi: −log10 of the molar value.
// note: pKi values for Adenosine receptor A3 (Homo sapiens) were reported in different studies
MEASURED PARAMETER: pKi

{"MOLECULE": "OC[C@H]1O[C@@H](n2cnc3c(NCCCc4ccccc4)ncnc32)[C@H](O)[C@@H]1O", "pKi": 8.12}

1: CCOC(=O)c1c(-c2ccccc2)nc(CC)c(C(=O)SCCF)c1CC
2: COC1C(C)=CCCCCOC(=O)CCCC(C)=CC(O)C(C)C=C(C)C=C(C)C=CC(O)C1C (stereo not shown)
3: CCSC(=O)c1c(CC)nc(-c2ccccc2)c(C(=O)O)c1CC
-- ask Order these by pKi, descending, and give the full ranking. Your task in answering is to list the labels in the requested order.
-- reply 1, 3, 2
(1: 8.08, 3: 6.94, 2: 6.36)
